- ASSAYED_SYSTEM: Integrin alpha1/beta1 (Homo sapiens)
- EXPERIMENTAL_PROTOCOL: Inhibition of integrin alpha1-beta1 adhesion using K562 cells expressing alpha-1
pIC50: −log10 of the molar value.
RECORDED_ENDPOINT: pIC50

Query :: Can you look up the measured pIC50 of `Cc1ccccc1NC(=O)Nc1ccc(CC(=O)N[C@@H](CC(C)C)C(=O)N[C@@H](CC(=O)O)C(=O)N[C@H](C(=O)O)C(C)C)cc1` for me?
Result :: < 4.00

---

- ASSAYED_SYSTEM: Integrin alpha-5/beta-1 (Homo sapiens, UniProt P05556+P08648)
- Sequence (P05556 21-798 limits assumed): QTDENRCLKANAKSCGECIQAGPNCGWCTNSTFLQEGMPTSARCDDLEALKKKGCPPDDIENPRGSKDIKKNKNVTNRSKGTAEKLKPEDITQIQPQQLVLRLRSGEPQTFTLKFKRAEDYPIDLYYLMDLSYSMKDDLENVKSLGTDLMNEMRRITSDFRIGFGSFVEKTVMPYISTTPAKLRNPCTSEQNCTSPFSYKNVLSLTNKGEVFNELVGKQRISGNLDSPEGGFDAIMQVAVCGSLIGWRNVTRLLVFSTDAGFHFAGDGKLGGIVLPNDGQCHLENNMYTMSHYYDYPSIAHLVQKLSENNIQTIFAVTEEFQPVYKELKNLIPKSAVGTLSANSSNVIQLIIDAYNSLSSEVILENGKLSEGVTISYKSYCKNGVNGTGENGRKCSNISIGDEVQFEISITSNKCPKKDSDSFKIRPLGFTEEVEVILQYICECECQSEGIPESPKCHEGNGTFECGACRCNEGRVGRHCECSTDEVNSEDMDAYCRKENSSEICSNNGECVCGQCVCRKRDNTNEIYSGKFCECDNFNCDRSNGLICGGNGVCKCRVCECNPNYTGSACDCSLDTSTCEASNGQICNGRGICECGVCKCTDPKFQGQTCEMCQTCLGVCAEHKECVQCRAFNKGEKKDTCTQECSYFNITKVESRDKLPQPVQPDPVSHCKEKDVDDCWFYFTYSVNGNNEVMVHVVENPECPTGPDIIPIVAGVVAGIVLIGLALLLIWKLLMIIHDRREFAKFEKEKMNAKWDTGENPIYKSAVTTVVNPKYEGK
- Sequence (P08648 42-894 limits assumed): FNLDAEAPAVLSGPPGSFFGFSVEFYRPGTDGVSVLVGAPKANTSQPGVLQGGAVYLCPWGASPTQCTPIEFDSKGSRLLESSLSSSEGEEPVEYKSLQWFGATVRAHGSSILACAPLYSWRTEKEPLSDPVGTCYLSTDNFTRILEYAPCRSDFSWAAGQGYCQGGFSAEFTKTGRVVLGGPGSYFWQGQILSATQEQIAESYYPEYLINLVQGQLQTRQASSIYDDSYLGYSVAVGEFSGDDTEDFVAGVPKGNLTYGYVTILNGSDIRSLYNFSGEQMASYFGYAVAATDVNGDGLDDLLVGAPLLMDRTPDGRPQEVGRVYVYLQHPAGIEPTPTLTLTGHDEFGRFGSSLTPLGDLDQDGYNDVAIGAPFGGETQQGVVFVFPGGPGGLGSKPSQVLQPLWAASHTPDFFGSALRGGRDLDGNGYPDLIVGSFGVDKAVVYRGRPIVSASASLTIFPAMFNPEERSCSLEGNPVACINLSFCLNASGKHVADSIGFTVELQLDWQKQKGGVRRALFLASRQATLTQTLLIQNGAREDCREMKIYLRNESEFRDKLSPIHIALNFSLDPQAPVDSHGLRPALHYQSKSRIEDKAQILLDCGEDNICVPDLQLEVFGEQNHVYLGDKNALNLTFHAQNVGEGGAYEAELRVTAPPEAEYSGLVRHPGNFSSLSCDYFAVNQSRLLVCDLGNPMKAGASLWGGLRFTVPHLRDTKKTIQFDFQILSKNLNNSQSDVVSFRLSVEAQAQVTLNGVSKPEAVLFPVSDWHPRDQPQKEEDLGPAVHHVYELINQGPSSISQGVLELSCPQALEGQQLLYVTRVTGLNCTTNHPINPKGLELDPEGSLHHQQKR
- Sequence (P08648 895-1049 limits assumed): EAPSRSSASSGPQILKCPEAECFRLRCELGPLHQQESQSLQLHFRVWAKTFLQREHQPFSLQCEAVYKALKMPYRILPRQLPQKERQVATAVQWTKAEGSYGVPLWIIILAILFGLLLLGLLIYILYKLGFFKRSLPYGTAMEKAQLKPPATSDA
- EXPERIMENTAL_PROTOCOL: Inhibition of integrin alpha5-beta1 adhesion to K562 cells
pIC50: −log10 of the molar value.
RECORDED_ENDPOINT: pIC50

Cc1ccccc1NC(=O)Nc1ccc(CC(=O)N[C@@H](CC(C)C)C(=O)N[C@@H](CC(=O)O)C(=O)N[C@H](C(=O)O)C(C)C)cc1	< 4.00

Below: the item to evaluate.
Query :: Which value of pIC50 has been reported for `Cc1ccccc1NC(=O)Nc1ccc(CC(=O)N[C@@H](CC(C)C)C(=O)N[C@@H](CC(=O)O)C(=O)O)cc1` in the records?
Result :: < 4.00
